Taken from a melting point compilation (Tetko et al.; mined from patent text by program, amines drawn as free bases though some values may be those of a salt).

result.type: melting point

Observe how each entry below is paired with its result.
1. CC(C)C[C@H](NC(=O)OCC1c2ccccc2-c2ccccc21)C(=O)N[C@H]1CCOC1OCc1ccc2ccccc2c1 (some centres undefined) = 79 to 80 °C
2. CC(C)(C)c1ccc(-c2ccc(-c3ccc(Br)s3)s2)cc1 = 132 to 136 °C

Take each entry in turn and give its melting point.
1. O=C(NCC12CC3CC(CC(C3)C1)C2)c1cc(-c2nccnc2N2CCC(C(=O)O)CC2)ccc1Cl
2. CCCc1cc(=O)oc2cc(OCCCN3CCN(c4ccccc4)CC3)ccc12
3. O=C(Nc1cc(Cl)cc(Cl)c1)c1cnc(Nc2ccccc2)nc1C(F)(F)F
4. CC(C)(C)c1cc(SC2CC(=O)N(CCCCCCN3C(=O)CC(Sc4cc(C(C)(C)C)c(O)c(C(C)(C)C)c4)C3=O)C2=O)cc(C(C)(C)C)c1O (centres undefined)
5. CC(C)(C)c1cc(Br)c(O)c(Br)c1

136 to 140 °C
114 to 116 °C
228 to 229 °C
69 to 72 °C
65 to 69 °C

Take each entry in turn and give its melting point.
1. CC(=NNC(=O)c1cc([N+](=O)[O-])cc2ccccc12)c1ccncc1
2. COc1cc2c(cc1OC)C(C(C#N)SCCOC(C)=O)=NCC2 (centres undefined)

228 °C
157 °C
